- tested_system: Hexose transporter 1 (Plasmodium falciparum)
- assay_info: ST_JUDE_LEISH: Cytotoxicity at 2uM final concentration against transgenic Leishmania Mexicana promastigotes LmPfHT that are glucose transport deficient and complemented with the Plasmodium falciparum hexose transporter. Activity is measured by DNA content using SYBR green in vitro
- Assay type: functional
Parameter inhibition: see the listing below.
Expressed in %, but write only the number.

Sample answers from the record:
1) O=S(=O)(NCCCN1CCOCC1)c1ccc2nccc(Nc3ccc(Oc4ccccc4)cc3)c2c1 :: -0.87
2) O=C1CSc2ccc(CNC3CCN(CCc4c(F)cnc5ccc(F)cc45)CC3)nc2N1 :: 0.21
3) Cc1ccc2nc(-c3ccc(C(=O)NC4CCN(Cc5ccccc5)CC4)cc3)[nH]c2c1C :: 7.69
4) Cc1ccc(NCc2cccc(F)c2)cc1S(=O)(=O)N[C@@H]1CCN(C#N)C1 :: 3.53
5) Cc1cccc(N2CCN(C3CCC(NC(=O)c4cc5ccccc5[nH]4)CC3)CC2)c1C (stereo not given) :: 1.82

Challenge: Write down inhibition measured for item `NC(=O)c1ccsc1NC(=O)CNC(c1ccccc1)c1ccccc1`
Response given: 3.09

Challenge: Look up inhibition of `Cn1nc(-c2ccc(NC(=O)Nc3cc(C(F)(F)F)ccc3F)cc2)c2cnc(NCCCCN3CCCC3)nc21` and report it.
Response given: 4.39

From: ChEMBL document CHEMBL3433997
